Data credit: ChEMBL document CHEMBL5365437

# test_target: UniProt:P47746
# Sequence (P47746 whole entry): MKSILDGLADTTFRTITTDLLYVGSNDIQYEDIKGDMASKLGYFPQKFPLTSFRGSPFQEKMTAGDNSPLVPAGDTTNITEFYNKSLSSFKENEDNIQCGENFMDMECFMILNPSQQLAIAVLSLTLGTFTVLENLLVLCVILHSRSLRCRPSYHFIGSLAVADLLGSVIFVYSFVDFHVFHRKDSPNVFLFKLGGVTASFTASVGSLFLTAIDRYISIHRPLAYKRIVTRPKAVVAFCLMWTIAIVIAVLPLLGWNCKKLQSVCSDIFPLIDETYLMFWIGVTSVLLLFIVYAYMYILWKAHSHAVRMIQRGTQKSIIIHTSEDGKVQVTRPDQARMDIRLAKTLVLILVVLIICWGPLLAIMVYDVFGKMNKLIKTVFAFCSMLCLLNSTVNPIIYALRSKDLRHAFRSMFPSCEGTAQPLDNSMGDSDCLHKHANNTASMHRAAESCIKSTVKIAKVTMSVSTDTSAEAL
# test_summary: Antagonist activity at CB1 receptor in mouse brain membrane assessed as inhibition of […]-induced GTPgammaS binding by [35S]GTPgammaS binding analysis
pIC50: −log10 of the molar value.
value_type: pIC50

# molecule, test_target, pIC50
records = [
    ("CC(=O)N/C(N)=N/C(=N/S(=O)(=O)c1ccc2ccccc2c1)N1C[C@H](c2ccccc2)C(c2ccc(Cl)cc2)=N1", "UniProt:P47746", 8.01),
]

[I] CN(C)/C(N)=N/C(=N/S(=O)(=O)c1ccc(Cl)cc1)N1CC(c2ccccc2)C(c2ccc(Cl)cc2)=N1 (stereo not given)
[II] CC(=O)N/C(N)=N/C(=N/S(=O)(=O)c1ccccc1)N1CC(c2ccccc2)C(c2ccc(Cl)cc2)=N1 (stereo not given)
[III] CC(=O)N/C(N)=N/C(=N/S(=O)(=O)N1CCCCC1)N1CC(c2ccccc2)C(c2ccc(Cl)cc2)=N1 (stereo not given)
Input line: Arrange the 3 entries by pIC50 so the values rise. API: response body holds the labels in the requested order.
Output line: I, II, III

[I] CC(=O)N/C(N)=N/C(=N/S(=O)(=O)N1CCOCC1)N1CC(c2ccccc2)C(c2ccc(Cl)cc2)=N1 (stereo not given)
[II] N/C(=N\C(=N\S(=O)(=O)c1ccc(Cl)cc1)N1CC(c2ccccc2)C(c2ccc(Cl)cc2)=N1)n1cccn1 (stereo not given)
[III] N/C(=N\C(=N\S(=O)(=O)c1ccc(OC(F)(F)F)cc1)N1CC(c2ccccc2)C(c2ccc(Cl)cc2)=N1)NC(=O)c1ccccc1 (stereo not given)
[IV] CC(C)(C)OC(=O)N/C(N)=N/C(=N/S(=O)(=O)c1ccc(Cl)cc1)N1CC(c2ccccc2)C(c2ccc(Cl)cc2)=N1 (stereo not given)
Input line: Task field, ranking: reported pIC50, descending order. API: response body holds the labels in the requested order.
Output line: I, IV, II, III
(I: 8.70, IV: 8.03, II: 7.54, III: 7.07)

[A] CC(=O)N/C(N)=N/C(=N/S(=O)(=O)c1ccc(C(C)(C)C)cc1)N1CC(c2ccccc2)C(c2ccc(Cl)cc2)=N1 (stereo not given)
[B] CCN(CC)/C(N)=N/C(=N/S(=O)(=O)c1ccc(Cl)cc1)N1CC(c2ccccc2)C(c2ccc(Cl)cc2)=N1 (stereo not given)
[C] N/C(=N\C(=N\S(=O)(=O)c1ccc(Cl)cc1)N1CC(c2ccccc2)C(c2ccc(Cl)cc2)=N1)NC(=O)c1ccccc1 (stereo not given)
Input line: Task field, ranking: reported pIC50, descending order. API: response body holds the labels in the requested order.
Output line: A, C, B
(A: 8.85, C: 7.60, B: 7.28)

[1] CC(=O)N/C(N)=N/C(=N/S(=O)(=O)c1ccc(I)cc1)N1CC(c2ccccc2)C(c2ccc(Cl)cc2)=N1 (stereo not given)
[2] CC(=O)N/C(N)=N/C(=N/S(=O)(=O)c1ccc(C#N)cc1)N1CC(c2ccccc2)C(c2ccc(Cl)cc2)=N1 (stereo not given)
[3] N/C(=N\C(=N\S(=O)(=O)c1ccc2ccccc2c1)N1CC(c2ccccc2)C(c2ccc(Cl)cc2)=N1)NC(=O)c1ccccc1 (stereo not given)
[4] COc1ccc(S(=O)(=O)/N=C(/N=C(\N)NC(C)=O)N2CC(c3ccccc3)C(c3ccc(Cl)cc3)=N2)cc1 (stereo not given)
Input line: Task field, ranking: reported pIC50, descending order. API: response body holds the labels in the requested order.
Output line: 1, 2, 4, 3

[I] CC(=O)N/C(N)=N/C(=N/S(=O)(=O)c1ccc(I)cc1)N1C[C@H](c2ccccc2)C(c2ccc(Cl)cc2)=N1
[II] CCN(CC)S(=O)(=O)/N=C(/N=C(\N)NC(C)=O)N1CC(c2ccccc2)C(c2ccc(Cl)cc2)=N1 (stereo not given)
Input line: # returns the entry with the larger pIC50; inputs I and II Kindly give the label for the entry you pick.
Output line: II

[A] CC(=O)N/C(N)=N/C(=N/S(=O)(=O)c1ccc(Cl)cc1)N1C[C@H](c2ccccc2)C(c2ccc(Cl)cc2)=N1
[B] CC(C)(N/C(N)=N/C(=N/S(=O)(=O)c1ccc(Cl)cc1)N1CC(c2ccccc2)C(c2ccc(Cl)cc2)=N1)c1ccccc1 (stereo not given)
[C] CC(=O)N/C(N)=N/C(=N/S(=O)(=O)N1CCC(F)(F)CC1)N1CC(c2ccccc2)C(c2ccc(Cl)cc2)=N1 (stereo not given)
[D] CC(C)(C)N/C(N)=N/C(=N/S(=O)(=O)c1ccc(Cl)cc1)N1CC(c2ccccc2)C(c2ccc(Cl)cc2)=N1 (stereo not given)
[E] CCCN(CCC)/C(N)=N/C(=N/S(=O)(=O)c1ccc(Cl)cc1)N1CC(c2ccccc2)C(c2ccc(Cl)cc2)=N1 (stereo not given)
Input line: Task field, ranking: reported pIC50, descending order. API: response body holds the labels in the requested order.
Output line: C, A, B, D, E
(C: 8.70, A: 8.41, B: 7.08, D: 6.64, E: 6.40)

[a] CC(=O)N/C(N)=N/C(=N/S(=O)(=O)c1ccc(Cl)cc1)N1CC(c2ccccc2)C(c2ccc(Cl)cc2)=N1 (stereo not given)
[b] CCC(=O)N/C(N)=N/C(=N/S(=O)(=O)c1ccc(C(F)(F)F)cc1)N1CC(c2ccccc2)C(c2ccc(Cl)cc2)=N1 (stereo not given)
Input line: # returns the entry with the larger pIC50; inputs a and b Kindly give the label for the entry you pick.
Output line: a

[1] CC(=O)N/C(N)=N/C(=N/S(=O)(=O)N1CCC(C(F)(F)F)CC1)N1CC(c2ccccc2)C(c2ccc(Cl)cc2)=N1 (stereo not given)
[2] CC(=O)N/C(N)=N/C(=N/S(=O)(=O)c1ccc(Br)cc1)N1CC(c2ccccc2)C(c2ccc(Cl)cc2)=N1 (stereo not given)
[3] Cc1ccc(S(=O)(=O)/N=C(/N=C(\N)NC(=O)c2ccccc2)N2CC(c3ccccc3)C(c3ccc(Cl)cc3)=N2)cc1 (stereo not given)
Input line: Arrange the 3 entries by pIC50 so the values rise. API: response body holds the labels in the requested order.
Output line: 3, 2, 1
